This collection of values is drawn from patent US20240239775A1.

Biological target: FXR (Homo sapiens)
Construct: 5 μL of 20 nM FXR-LBD Complete Coregulator buffer G; purchased ThermoFisher PV4833
Sequence (Q96RI1 262-486 limits assumed): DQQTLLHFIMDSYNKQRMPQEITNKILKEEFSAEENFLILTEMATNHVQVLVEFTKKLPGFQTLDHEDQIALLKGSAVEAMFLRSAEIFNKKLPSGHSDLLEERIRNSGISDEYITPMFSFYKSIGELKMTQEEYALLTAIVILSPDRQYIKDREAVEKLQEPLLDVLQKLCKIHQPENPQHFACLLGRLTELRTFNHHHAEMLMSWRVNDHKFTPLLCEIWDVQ
Test: FXR antagonist screening by TR-FRET (LanthaScreen TR-FRET FXR co-activation assay kit)
Format: biochemical
Conditions: Table 1.1, FXR antagonistic activity; TR-FRET with CDCA; geometric means of at least two independent runs
Reported IC50 values for the following molecules.

Some solved entries appear below for comparison.
molecule | assayed.system | result
CCOC(=O)c1oc2ccc(S(=O)(=O)N(CCc3ccccc3)Cc3ccc(SC(F)(F)F)cc3)cc2c1C [Example M4-35] | FXR (Homo sapiens) | 50 to 100 µM
Cc1c(C(=O)O)oc2ccc(S(=O)(=O)N(CCc3ccccc3)Cc3ccc(CC(=O)O)cc3)cc12 [Example F27-S41] | FXR (Homo sapiens) | 50 to 100 µM
CCOC(=O)c1oc2ccc(S(=O)(=O)N(CCc3ccccc3)Cc3c(F)cccc3F)cc2c1C [Example M4-46] | FXR (Homo sapiens) | 50 to 100 µM
Cc1c(C(=O)O)oc2ccc(S(=O)(=O)N(CCc3ccccc3)Cc3ccc(C(F)(F)F)cc3)cc12 [Example F27-S32] | FXR (Homo sapiens) | 10 to 50 µM

Fill blank: measured IC50 of the molecule Cc1c(C(=O)O)oc2ccc(S(=O)(=O)N(CCc3ccccc3)Cc3ccccc3Br)cc12 [Example F27-S16] is ____.
10 to 50 µM

Fill blank: measured IC50 of the molecule Cc1c(C(=O)O)oc2ccc(S(=O)(=O)N(CCc3ccccc3)c3ccccc3N3CCN(Cc4ccccc4)CC3)cc12 [Example F27-S95] is ____.
10 to 50 µM

Fill blank: measured IC50 of the molecule Cc1ccc(CN(CCc2ccccc2)S(=O)(=O)c2ccc3oc(C(=O)O)c(C)c3c2)cc1 [Example F27-S31] is ____.
10 to 50 µM

Fill blank: measured IC50 of the molecule Cc1c(C(=O)O)oc2ccc(S(=O)(=O)N(CCc3ccccc3)Cc3ccccc3C(F)(F)F)cc12 [Example F27-S18] is ____.
10 to 50 µM

Fill blank: measured IC50 of the molecule CC(=O)N1CCN(c2ccc(N(CCc3ccccc3)S(=O)(=O)c3ccc4oc(C(=O)O)c(C)c4c3)cc2)CC1 [Example F27-S68] is ____.
50 to 100 µM

Fill blank: measured IC50 of the molecule Cc1c(C(=O)O)oc2ccc(S(=O)(=O)N(CCc3ccccc3)Cc3ccc(C(=O)c4ccccc4)cc3)cc12 [Example F27-S85] is ____.
10 to 50 µM
